Source of measurements: PubChem BioAssay (Tox21)

- test: A CellTox Green Cytotoxicity Assay to monitor cytotoxicity in HepG2 cells - 32 hour (AID 1224883); also: nearly all actives have a fitted effect of over 50% in size
- experimental_parameters: CellTox Green fluorescence; series mostly up to 76.8 µM
Inconclusive results are not listed. The source made the active and inactive calls. Calls follow the shape of the dose curve; as a rule, active = well fitted activation curve with a large enough effect in the repeat runs; inconclusive = weak or mixed curves; inactive = flat fitted curve, though single readings scatter.

- compound: "Cc1ccc(N)cc1N"
  outcome: "inactive"
- compound: "COP(N)(=O)SC (stereo not drawn)"
  outcome: "inactive"
- compound: "CC1C=[C-]C=C1.[C-]#[O+].[C-]#[O+].[C-]#[O+].[Mn]"
  outcome: "inactive"

* * *

- test: qHTS assay to identify small molecule agonists of the estrogen related receptor signaling pathway with the pleiotropic PPARgamma coactivator (PGC) from Tox21 10K library (AID 1224842); also: nearly all actives have a fitted effect of over 15% in size
- experimental_parameters: PGC/ERR reporter cell line, luciferase ONE-Glo, 18 h; series mostly up to 92.4 µM
Records with an inconclusive call do not appear. Activity calls are given as the source filed them. Calls follow the shape of the dose curve; as a rule, active = well fitted activation curve with a large enough effect in the repeat runs; inconclusive = weak or mixed curves, or effect the other way; inactive = no such curve, though single readings can be large or run the other way.
value_kind: outcome

- molecule: "CCCCOC(=O)c1ccccc1C(=O)OCCCC"
  value_kind: "outcome"
  experimental_value: "inactive"
- molecule: "COC(=O)c1ccccc1C(=O)OC"
  value_kind: "outcome"
  experimental_value: "inactive"
- molecule: "CCc1cccc(C)c1N(C(=O)CCl)C(C)COC (configuration not stated)"
  value_kind: "outcome"
  experimental_value: "inactive"
- molecule: "BrCCBr"
  value_kind: "outcome"
  experimental_value: "inactive"
- molecule: "Cn1cc(-c2ccccc2)c(=O)c(-c2cccc(C(F)(F)F)c2)c1"
  value_kind: "outcome"
  experimental_value: "inactive"
- molecule: "CN(N=O)c1ccccc1"
  value_kind: "outcome"
  experimental_value: "inactive"

### Prompt What does the record list as outcome for "COc1ccc2c3c1O[C@H]1[C@@H](O)C=C[C@H]4[C@@H](C2)N(C)CC[C@@]341" ?
### Response inactive

### Prompt Any idea what its outcome is? The molecule is "Clc1cccc(Cl)c1Cl"
### Response inactive

### Prompt Data request, read-out outcome, for "CCC(C)(CC)c1cc(NC(=O)c2c(OC)cccc2OC)on1"
### Response inactive

### Prompt Which value of outcome has been reported for "CC(=O)C=C(C)C" in the records?
### Response inactive
